Entries and their Ki values follow.
# target-under-test: human RIP1 kinase domain (2-375) (Homo sapiens (Human))
# Sequence (Q13546 2-375): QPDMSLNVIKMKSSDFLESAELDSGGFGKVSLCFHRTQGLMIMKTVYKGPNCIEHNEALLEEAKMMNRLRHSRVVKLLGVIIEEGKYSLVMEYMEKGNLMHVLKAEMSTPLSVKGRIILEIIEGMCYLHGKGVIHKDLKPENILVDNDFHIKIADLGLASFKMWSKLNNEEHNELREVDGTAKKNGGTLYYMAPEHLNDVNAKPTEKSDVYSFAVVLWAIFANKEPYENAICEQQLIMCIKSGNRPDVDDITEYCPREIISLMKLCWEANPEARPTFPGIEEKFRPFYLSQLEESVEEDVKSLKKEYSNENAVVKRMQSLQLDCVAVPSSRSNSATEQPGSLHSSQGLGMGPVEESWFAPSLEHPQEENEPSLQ
# test-description: biochemical
# Type: biochemical
# experimental-conditions: Table 5; apparent Ki (Morrison tight-binding fit); 50 nM RIP1 kinase domain, 50 uM ATP, 2 hours incubation; read-out: Ki
endpoint-name: Ki

> print(dat)
                                   compound  result
1  CN1C(=O)[C@@H](NC(=O)c2cn(Cc3ccccc3)cn2)CCn2nccc21 (single isomer, unassigned)   66 nM
2  CN1C(=O)[C@@H](NC(=O)c2ncn(Cc3ccccc3)n2)CCn2nc(CN3CCOCC3)cc21 (single isomer, unassigned) [Example 720]  155 nM
3  COCCNCc1cc2n(n1)CCC(NC(=O)c1ncn(Cc3ccccc3)n1)C(=O)N2C (single isomer, unassigned) [Example 724]  598 nM
